Target: plasmin (Homo sapiens, UniProt P00747)
Sequence (P00747 581-810 limits assumed, species assumed): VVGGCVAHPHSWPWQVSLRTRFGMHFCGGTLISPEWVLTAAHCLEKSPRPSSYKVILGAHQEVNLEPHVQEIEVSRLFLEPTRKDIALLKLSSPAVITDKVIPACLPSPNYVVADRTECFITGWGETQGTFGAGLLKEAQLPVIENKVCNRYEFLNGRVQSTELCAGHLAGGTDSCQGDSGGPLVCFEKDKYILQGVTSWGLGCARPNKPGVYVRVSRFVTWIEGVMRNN
Sequence (P00747 97-580 partner limits assumed, species assumed): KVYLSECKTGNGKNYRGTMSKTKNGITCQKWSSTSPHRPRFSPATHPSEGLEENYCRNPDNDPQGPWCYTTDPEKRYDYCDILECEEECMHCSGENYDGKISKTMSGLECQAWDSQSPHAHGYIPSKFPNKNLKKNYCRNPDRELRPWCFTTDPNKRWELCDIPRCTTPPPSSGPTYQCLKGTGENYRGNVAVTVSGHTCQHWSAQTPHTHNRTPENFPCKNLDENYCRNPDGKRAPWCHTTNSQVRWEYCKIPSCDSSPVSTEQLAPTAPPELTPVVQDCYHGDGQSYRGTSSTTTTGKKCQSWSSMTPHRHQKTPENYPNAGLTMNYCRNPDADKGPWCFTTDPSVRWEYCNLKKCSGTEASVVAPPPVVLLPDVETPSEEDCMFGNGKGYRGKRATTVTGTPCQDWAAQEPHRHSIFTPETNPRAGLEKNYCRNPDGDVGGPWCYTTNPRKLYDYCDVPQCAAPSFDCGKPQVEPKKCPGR
Test: Plasmin inhibition in vitro (substrate H-D-Val-Leu-L-Lys-p-nitroanilide dihydrochloride)
Assay type: biochemical
Conditions: read-out: 50% Inhibitory concentration (IC50) Plasmin
Would you kindly list IC50 for each of these molecules?
Numbers only, in nM.

Consider the following illustrative entries.
# lookup: IC50 of N=C(N)Nc1ccc(C(=O)Oc2ccc(SCCN3C(=O)CCC3=O)cc2)cc1 [B, methanesulfonate]
950

# lookup: IC50 of N=C(N)Nc1ccc(C(=O)Oc2ccc(SCCCCCN3C(=O)CCC3=O)cc2)cc1 [F, methanesulfonate]
640

# lookup: IC50 of CC1(C)OC(=O)N(CCSc2ccc(OC(=O)c3ccc(NC(=N)N)cc3)cc2)C1=O [I, methanesulfonate]
830

# lookup: IC50 of N=C(N)Nc1ccc(C(=O)Oc2ccc(SCCCCN3C(=O)CCC3=O)cc2)cc1 [E, methanesulfonate]
2300

# lookup: IC50 of CCOCCSc1ccc(OC(=O)c2ccc(NC(=N)N)cc2)cc1 [C, methanesulfonate]
2200

# lookup: IC50 of N=C(N)Nc1ccc(C(=O)Oc2ccc(SCCN3C(=O)[C@H]4CCCC[C@H]4C3=O)cc2)cc1
1000

Give IC50 for all molecules that follow.
1. N=C(N)Nc1ccc(C(=O)Oc2ccc(SCCCN3C(=O)CCC3=O)cc2)cc1 [D, methanesulfonate]
2. N=C(N)Nc1ccc(C(=O)Oc2ccc(SCCN3C(=O)c4ccccc4C3=O)cc2)cc1 [H, methanesulfonate]
3. N=C(N)Nc1ccc(C(=O)Oc2ccc(SCCO)cc2)cc1 [A, methanesulfonate]

[1300, 920, 1300]
